molecular target: caspase-1 (Homo sapiens, UniProt P29466); assay: Recombinant caspase enzyme inhibition, fluorogenic substrate Ac-YVAD-AMC; conditions: Reversible Inhibitor
Sequence (P29466 120-297 limits assumed): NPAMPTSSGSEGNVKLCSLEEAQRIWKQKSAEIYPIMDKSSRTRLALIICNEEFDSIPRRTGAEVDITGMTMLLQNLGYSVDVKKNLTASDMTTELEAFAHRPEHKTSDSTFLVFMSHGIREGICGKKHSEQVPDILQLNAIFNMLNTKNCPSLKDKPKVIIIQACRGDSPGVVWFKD
Sequence (P29466 317-404 limits assumed): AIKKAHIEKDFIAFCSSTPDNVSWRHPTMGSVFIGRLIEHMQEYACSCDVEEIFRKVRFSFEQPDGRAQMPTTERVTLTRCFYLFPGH
measuredParameter: pKi
Remember, pKi is on a log scale: it is -log10 of the molar concentration.

Below, 2 molecules whose answers are already recorded.
- molecule: "CC1(C(=O)N[C@@H](CC(=O)O)C(=O)COc2ccccc2)CC([C@H](CCC(=O)O)NC(=O)CCC(=O)O)=NO1 (mixture of isomers) [Compound 46]"
  obsValue: 7.54
- molecule: "CC(C)[C@H](NC(=O)c1cccc2ccccc12)C1=NOC(Cc2ccccc2)(C(=O)N[C@@H](CC(=O)O)C(=O)CN2CCCCC2)C1 (stereo partly drawn) [Compound 48]"
  obsValue: 8.82

Now look at this entry.
pKi lookup needed for CC(C)[C@H](NC(=O)c1ccc2ccccc2c1)C1=NOC(C(=O)N[C@@H](CC(=O)O)C(=O)COc2ccc3ccccc3c2)C1 (stereo partly drawn) [Compound 29] , thanks.
9.49
